These measurements were taken from paper PMC10397247.

- target.system: T1, P7A-bH
- T1 chain: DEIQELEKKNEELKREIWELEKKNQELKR
- assay.explanation: two-hybrid library CCNG1;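 also: natural log of median RNA to DNA barcode read ratio; higher means stronger binding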
measured.attribute: interaction score
Give your answer as a number; write no unit.

The cases that follow already have their interaction score on record.
1. DKIQELKKKIEELKRENWELEKENQELER [P4A-bH] :: -0.412
2. DKNQELKKKIEELKRKIWELKKENQELER [P12A-bH] :: -0.514

Shifting focus to the binder that follows.
Input line: // query interaction score value for entry DENQELEKKIEELKRKNWELKKEIQELER [P5A-bH]
Output line: -0.756
